# Assay target: T1, peptide EISQEVAGAVFPSY (SEQ ID NO:79), N-terminally biotinylated (human)
# T1 peptide: Biotin-EISQEVAGAVFPSY
# Test description: ELISA, biotin-peptide on neutravidin plate, antibody 1 ug/ml
Ends that are not written are not given here. * marks the point of attachment. Biotin = O=C1N[C@H]2[C@H](CS[C@H]2CCCCC(=O)*)N1
Could you please report measured absorbance 450 nm minus 540 nm for the items listed next?
Answers are plain numbers, in absorbance.

Example entries begin here.
{"Binder": "anti-lactadherin antibody 346B6 (antibody, IgG1, V domains shown, VH identical to that of 311A7; also called hybridoma 346B6; LMBP 9490CB) VH: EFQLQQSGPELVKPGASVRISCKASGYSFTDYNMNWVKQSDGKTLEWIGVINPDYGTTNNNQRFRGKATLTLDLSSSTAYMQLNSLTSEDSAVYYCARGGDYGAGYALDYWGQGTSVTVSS VL: QIVLTQSPAIMSASPGEKVTMTCSASSSVSYMYWYQQKPGSSPRLLIYDTSNLASGVPVRFSGSGSGTSYSLTISRMEAEDAATYYCQQWSSYPPTFGAGTKLELKR", "absorbance 450 nm minus 540 nm / absorbance": 0.07}
{"Binder": "anti-lactadherin antibody 399A12 (antibody, V domains shown, Murine monoclonal, kappa light chain; Variable regions identical to those of 416H9; also called hybridoma 399A12; LMBP 9491CB) VH: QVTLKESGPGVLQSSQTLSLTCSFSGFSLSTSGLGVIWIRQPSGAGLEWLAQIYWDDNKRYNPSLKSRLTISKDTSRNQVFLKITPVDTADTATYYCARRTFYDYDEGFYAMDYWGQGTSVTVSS VL: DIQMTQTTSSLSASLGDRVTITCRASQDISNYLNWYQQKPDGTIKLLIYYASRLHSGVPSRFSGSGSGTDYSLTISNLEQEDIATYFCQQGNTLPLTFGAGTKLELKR", "absorbance 450 nm minus 540 nm / absorbance": 0.03}
{"Binder": "anti-lactadherin antibody 311A7 (antibody, IgG1, V domains shown, also called murine 311A7; hybridoma 311A7) VH: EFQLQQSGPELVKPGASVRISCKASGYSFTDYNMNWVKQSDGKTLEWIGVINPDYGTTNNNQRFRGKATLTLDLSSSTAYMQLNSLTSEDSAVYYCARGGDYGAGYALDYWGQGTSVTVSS VL: QIVLTQSPAIMSASPGEKVTITCSASSSVSYMYWFQQKPGTSPKLWIYSTSNLASGVPARFSGSGSGTSYSLTISRMEAEDAATYYCQQRSSYPRTFGGGTKLEIKR", "absorbance 450 nm minus 540 nm / absorbance": 0.05}
{"Binder": "anti-lactadherin antibody 215A9 (antibody, IgG1, V domains shown, also called 2154A9; hybridoma 215A9) VH: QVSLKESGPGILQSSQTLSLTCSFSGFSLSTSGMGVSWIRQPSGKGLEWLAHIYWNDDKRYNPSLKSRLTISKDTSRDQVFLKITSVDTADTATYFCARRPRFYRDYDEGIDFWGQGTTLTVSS VL: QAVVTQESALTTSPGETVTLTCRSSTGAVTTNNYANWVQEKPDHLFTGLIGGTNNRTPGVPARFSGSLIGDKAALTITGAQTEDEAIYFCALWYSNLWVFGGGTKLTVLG", "absorbance 450 nm minus 540 nm / absorbance": 0.03}
{"Binder": "anti-lactadherin antibody 416H9 (antibody, IgG1, V domains shown, also called hybridoma 416H9; LMBP 9492CB) VH: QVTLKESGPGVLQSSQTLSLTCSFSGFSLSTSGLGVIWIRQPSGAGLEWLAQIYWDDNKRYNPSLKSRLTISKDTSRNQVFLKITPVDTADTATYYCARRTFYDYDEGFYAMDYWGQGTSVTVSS VL: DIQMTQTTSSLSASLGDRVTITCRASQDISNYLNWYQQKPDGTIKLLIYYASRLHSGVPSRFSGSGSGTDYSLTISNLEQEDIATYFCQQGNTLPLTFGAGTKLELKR", "absorbance 450 nm minus 540 nm / absorbance": 0.05}

Request: What value of measured absorbance 450 nm minus 540 nm is listed for huMc3 antibody (antibody, V domains shown) VH: EVQLVQSGAEVKKPGASVKVSCKASGYSFTGYTMHWVKQSPGMNLEWIGLINPYNGGTVYNQKFQDKATLTVDKSTSTAYMELSSLRSEDTAVYFCARRWRYTMDYWGQGTLVTVSS VL: DIVMTQSPDSLAVSLGERATITCKASQDVSIGVAWYQQKPGQSPKLLIYSASSRYTGVPDRFSGSGSGTDFTLTISSLQAEDVAVYYCQQHYTSPFTFGSGTKVEIK ?
Result: 0.04
